Reported viability by item:
- System: primary MCL patient cells (S063)
- Assay: viability relative to DMSO control (fraction); higher = less drug effect (more viable cells)
- Test Settings: 3 µM; 48 h
Readout Kind: viability

smiles_entry=Oc1ccc(/C=C/c2cc(O)cc(O)c2)cc1 obs_value=0.854
smiles_entry=O=C(c1cc(Cc2n[nH]c(=O)c3ccccc23)ccc1F)N1CCN(C(=O)C2CC2)CC1 obs_value=0.933
smiles_entry=CCc1nc(C(N)=O)c(Nc2ccc(N3CCC(N4CCN(C)CC4)CC3)c(OC)c2)nc1NC1CCOCC1 obs_value=0.42
smiles_entry=Nc1ncn([C@H]2C[C@H](O)[C@@H](CO)O2)c(=O)n1 obs_value=0.974

====

- Test system: primary AML patient cells (S002)
- Assay: viability relative to DMSO control (fraction); higher = less drug effect (more viable cells)
- Test Settings: 0.6 µM; 48 h
Readout Kind: viability

molecule="Nc1nc(=S)c2[nH]cnc2[nH]1 [Thioguanin]" readout_kind=viability obs_value=0.949
molecule="O=C(O)CSc1cc(NS(=O)(=O)c2ccc(Br)cc2)c2ccccc2c1O [UMI-77]" readout_kind=viability obs_value=0.948
molecule="Oc1ccc(/C=C/c2cc(O)cc(O)c2)cc1 [Resveratrol]" readout_kind=viability obs_value=0.894

====

- Tested on: primary CLL patient cells (S043)
- Assay: viability relative to DMSO control (fraction); higher = less drug effect (more viable cells)
- Test Settings: 0.016 µM; 48 h
Readout Kind: viability

smiles_entry=CC1(COc2ccc3c(c2)ncn3-c2ccc3cccc(N4CCC(N)CC4)c3n2)COC1 obs_value=0.963
smiles_entry=CC[C@H](Nc1ncnc2[nH]cnc12)c1nc2cccc(F)c2c(=O)n1-c1ccccc1 obs_value=0.805
smiles_entry=Cc1sc2c(c1C)C(c1ccc(Cl)cc1)=N[C@@H](CC(=O)Nc1ccc(O)cc1)c1nnc(C)n1-2 obs_value=0.959
smiles_entry=CC(C)c1cc(C(=O)N2Cc3ccc(CN4CCN(C)CC4)cc3C2)c(O)cc1O obs_value=1.1

====

- System: primary AML patient cells (S089)
- Assay: viability relative to DMSO control (fraction); higher = less drug effect (more viable cells)
- Test Settings: 0.12 µM; 48 h
Readout Kind: viability

smiles_entry=Cc1cc(Nc2ncc(Cl)c(Nc3ccccc3S(=O)(=O)C(C)C)n2)c(OC(C)C)cc1C1CCNCC1 obs_value=0.866
smiles_entry=O=C(O)CSc1cc(NS(=O)(=O)c2ccc(Br)cc2)c2ccccc2c1O obs_value=0.672
smiles_entry=CCc1nc(C(N)=O)c(Nc2ccc(N3CCC(N4CCN(C)CC4)CC3)c(OC)c2)nc1NC1CCOCC1 obs_value=0.552
smiles_entry=CCN1CCN(Cc2ccc(Nc3ncc(F)c(-c4cc(F)c5nc(C)n(C(C)C)c5c4)n3)nc2)CC1 obs_value=0.962

====

- Test system: primary AML patient cells (S012)
- Assay: viability relative to DMSO control (fraction); higher = less drug effect (more viable cells)
- Test Settings: 0.024 µM; 48 h
Reported viability by item:
Readout Kind: viability

smiles_entry=Nc1ncn([C@H]2C[C@H](O)[C@@H](CO)O2)c(=O)n1 obs_value=1
smiles_entry=Nc1nc(Cl)nc2c1ncn2[C@@H]1O[C@H](CO)[C@@H](O)[C@@H]1F obs_value=0.956
smiles_entry=CNC(=O)c1cc(Oc2ccc(NC(=O)Nc3ccc(Cl)c(C(F)(F)F)c3)cc2)ccn1 obs_value=0.958
smiles_entry=CCc1nc(C(N)=O)c(Nc2ccc(N3CCC(N4CCN(C)CC4)CC3)c(OC)c2)nc1NC1CCOCC1 obs_value=0.956

====

- Test system: primary AML patient cells (S055)
- Assay: viability relative to DMSO control (fraction); higher = less drug effect (more viable cells)
- Test Settings: 0.008 µM; 48 h
Reported viability by item:
Readout Kind: viability

molecule="COc1cccc2c1C(=O)c1c(O)c3c(c(O)c1C2=O)C[C@@](O)(C(=O)CO)C[C@@H]3O[C@H]1C[C@H](N)[C@H](O)[C@H](C)O1 [Doxorubicin]" obs_value=0.99
molecule="C/C=C1\\NC(=O)[C@H]2CSSCC/C=C/[C@H](CC(=O)N[C@H](C(C)C)C(=O)N2)OC(=O)[C@H](C(C)C)NC1=O [Romidepsin]" obs_value=0.524
molecule="Nc1cccc2c1CN(C1CCC(=O)NC1=O)C2=O (stereo not given) [Lenalidomide]" obs_value=1.01
molecule="O=C1c2c(O)ccc(O)c2C(=O)c2c(NCCNCCO)ccc(NCCNCCO)c21 [Mitoxantrone]" obs_value=0.978
molecule="COc1cccc2c1C(=O)c1c(O)c3c(c(O)c1C2=O)C[C@@](O)(C(C)=O)C[C@@H]3O[C@H]1C[C@H](N)[C@H](O)[C@H](C)O1 [Daunorubicin]" obs_value=1.05

====

- System: primary AML patient cells (S037)
- Assay: viability relative to DMSO control (fraction); higher = less drug effect (more viable cells)
- Test Settings: 15 µM; 48 h
Reported viability by item:
Readout Kind: viability

smiles_entry=Oc1ccc(/C=C/c2cc(O)cc(O)c2)cc1 obs_value=0.96
smiles_entry=CCN1CCN(Cc2ccc(Nc3ncc(F)c(-c4cc(F)c5nc(C)n(C(C)C)c5c4)n3)nc2)CC1 obs_value=0.255
smiles_entry=C[C@@H](Oc1cc(-c2cnn(C3CCNCC3)c2)cnc1N)c1c(Cl)ccc(F)c1Cl obs_value=0.586
smiles_entry=O=C(Nc1cccc(C(F)(F)F)c1)Nc1cc(S(=O)(=O)NC2CC2)ccc1-c1ccsc1 obs_value=0.889
smiles_entry=O=C(O)CSc1cc(NS(=O)(=O)c2ccc(Br)cc2)c2ccccc2c1O obs_value=0.633
smiles_entry=N#Cc1ccnc(N2C(=O)CC[C@H]2C(=O)N(c2cncc(F)c2)[C@H](C(=O)NC2CC(F)(F)C2)c2ccccc2Cl)c1 obs_value=0.888
smiles_entry=Cc1cc(Nc2ncc(Cl)c(Nc3ccccc3S(=O)(=O)C(C)C)n2)c(OC(C)C)cc1C1CCNCC1 obs_value=0.296
smiles_entry=N#CC[C@H](C1CCCC1)n1cc(-c2ncnc3[nH]ccc23)cn1 obs_value=0.965
smiles_entry=Nc1nc(Cl)nc2c1ncn2[C@@H]1O[C@H](CO)[C@@H](O)[C@@H]1F obs_value=0.627

====

- Test system: primary AML patient cells (S072)
- Assay: viability relative to DMSO control (fraction); higher = less drug effect (more viable cells)
- Test Settings: 0.4 µM; 48 h
Readout Kind: viability

smiles_entry=CN1CC[C@H](c2c(O)cc(O)c3c(=O)cc(-c4ccccc4Cl)oc23)[C@H](O)C1 obs_value=0.156
smiles_entry=O=C(Nc1nc2ccccc2n1CCN1CCOCC1)c1cccc([N+](=O)[O-])c1 obs_value=0.909
smiles_entry=CC(C)c1cc(-c2n[nH]c(=O)n2-c2ccc3c(ccn3C)c2)c(O)cc1O obs_value=0.39
smiles_entry=Nc1nc(F)nc2c1ncn2[C@@H]1O[C@H](CO)[C@@H](O)[C@@H]1O obs_value=0.824

====

- System: primary AML patient cells (S012)
- Assay: viability relative to DMSO control (fraction); higher = less drug effect (more viable cells)
- Test Settings: 3 µM; 48 h
Each record is given met if its reported viability is strictly below 0.9. Records at or above 0.9 are given not met.

smiles_entry=CS(=O)(=O)c1ccc(C(=O)Nc2ccc(Cl)c(-c3ccccn3)c2)c(Cl)c1 answer_label="not met"
smiles_entry=O=C(Nc1cccc(C(F)(F)F)c1)Nc1cc(S(=O)(=O)NC2CC2)ccc1-c1ccsc1 answer_label="not met"
smiles_entry=C[C@@H](Oc1cc(-c2cnn(C3CCNCC3)c2)cnc1N)c1c(Cl)ccc(F)c1Cl answer_label="not met"
smiles_entry=Oc1ccc(/C=C/c2cc(O)cc(O)c2)cc1 answer_label="not met"
smiles_entry=Nc1nc(Cl)nc2c1ncn2[C@@H]1O[C@H](CO)[C@@H](O)[C@@H]1F answer_label=met

====

- Tested on: primary MCL patient cells (S068)
- Assay: viability relative to DMSO control (fraction); higher = less drug effect (more viable cells)
- Test Settings: 0.12 µM; 48 h
Reported viability by item:
Readout Kind: viability

molecule="Nc1ncn([C@H]2C[C@H](O)[C@@H](CO)O2)c(=O)n1 [Decitabine (Dacogen)]" obs_value=0.974
molecule="CNC(=O)c1cc(Oc2ccc(NC(=O)Nc3ccc(Cl)c(C(F)(F)F)c3)cc2)ccn1 [Sorafenib]" obs_value=1.03
molecule="N#Cc1ccnc(N2C(=O)CC[C@H]2C(=O)N(c2cncc(F)c2)[C@H](C(=O)NC2CC(F)(F)C2)c2ccccc2Cl)c1 [AG-120]" obs_value=1.02
molecule="C[C@@H](Oc1cc(-c2cnn(C3CCNCC3)c2)cnc1N)c1c(Cl)ccc(F)c1Cl [Crizotinib]" obs_value=1.22
molecule="Cc1cc(Nc2ncc(Cl)c(Nc3ccccc3S(=O)(=O)C(C)C)n2)c(OC(C)C)cc1C1CCNCC1 [Ceritinib]" obs_value=0.84

====

Reported viability by item:
- Tested on: primary AML patient cells (S017)
- Assay: viability relative to DMSO control (fraction); higher = less drug effect (more viable cells)
- Test Settings: 0.6 µM; 48 h
Readout Kind: viability

molecule="Nc1nc(=S)c2[nH]cnc2[nH]1 [Thioguanin]" readout_kind=viability obs_value=0.785
molecule="N#CC[C@H](C1CCCC1)n1cc(-c2ncnc3[nH]ccc23)cn1 [Ruxolitinib]" readout_kind=viability obs_value=1.09
molecule="CCc1nc(C(N)=O)c(Nc2ccc(N3CCC(N4CCN(C)CC4)CC3)c(OC)c2)nc1NC1CCOCC1 [Gilteritinib]" readout_kind=viability obs_value=0.606
molecule="Oc1ccc(/C=C/c2cc(O)cc(O)c2)cc1 [Resveratrol]" readout_kind=viability obs_value=0.92
molecule="CNC(=O)c1cc(Oc2ccc(NC(=O)Nc3ccc(Cl)c(C(F)(F)F)c3)cc2)ccn1 [Sorafenib]" readout_kind=viability obs_value=0.935
molecule="O=C(Nc1cccc(C(F)(F)F)c1)Nc1cc(S(=O)(=O)NC2CC2)ccc1-c1ccsc1 [AGI-6780]" readout_kind=viability obs_value=0.919
